Assay: Solubility in water
Format: physicochemical
Details: parent compound without salt formation or use of specialized excipients
READOUT TYPE: solubility (µM)
Use µM as the unit, but write only the number.

Value of solubility reported for the compound CC1=NN(c2ccc(C)c(C)c2)C(=O)/C1=N\Nc1cccc(C2CCCC(C(=O)O)C2)c1O (stereo not shown) is 140
